procedureText: Staphylococcus aureus RN4220 growth blockers – two temperatures, LtaS inhibitor project, primary screen (AID 720641)
appliedConditions: S. aureus RN4220 growth, OD600, 20 h, 42 °C
Among all 170,000 compounds or so, about 900 (0.53%) were called active.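 How the source made its calls: active means relative growth at most 50% at the other temperature and 20+ points below 30 °C, or under 10% at both; inactive means the rest, inconclusive results apart.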 The sample holds actives, similar compounds and a random draw of the others, so the mix is not that of the screen.
Lab note: assign the record to one of T = active, F = inactive

Reference set, count: 10
- compound: "COc1ccc(-c2csc3ncnc(NCCSCc4ccco4)c23)cc1"
  category: "F"
- compound: "Cn1c(NC(=O)c2ccccc2)nc2ccccc21"
  category: "T"
- compound: "CC(NC(=O)Nc1ccccc1)c1ccccc1 (stereo not drawn)"
  category: "F"
- compound: "CSc1nc(C)cc(=O)[nH]1"
  category: "F"
- compound: "Cn1c(-c2ccc(C(=O)c3ccccc3)s2)nc2ccccc21"
  category: "F"
- compound: "CC1Cc2ccccc2N1c1ccc2ccccc2n1 (stereo not drawn)"
  category: "F"
- compound: "CCOC(=O)c1c(NC(=O)C(F)(F)F)sc2c1CCCC2"
  category: "F"
- compound: "COc1ccc(C2=NC(C)(C)N(CC(=O)Nc3ccccc3)C2=O)cc1"
  category: "F"
- compound: "CC1CCCCN1C(=O)c1ccc(Br)cc1 (stereo not drawn)"
  category: "F"
- compound: "CCOC(=O)N1CCN(CC(=O)NCCc2ccc(Cl)cc2Cl)CC1"
  category: "F"

Lookup: Hi, sorry to bother you, what did the test record for CO/N=C(/C(=O)N[C@@H]1C(=O)N2C(C(=O)O)=C(CSc3nc(=O)c(O)nn3C)CS[C@H]12)c1csc(N)n1 ?
Found: T

Lookup: Hi, sorry to bother you, what did the test record for CCOC(=O)c1oc2nc(-c3ccccc3)cc(-c3ccco3)c2c1N ?
Found: F

Lookup: Hi, sorry to bother you, what did the test record for Cn1c(NCc2ccccc2)nc2ccccc21 ?
Found: F

Lookup: Hi, sorry to bother you, what did the test record for Cc1cccn2c(=O)cc(CN3CCC(C(=O)N4CCOCC4)CC3)nc12 ?
Found: F

Lookup: Hi, sorry to bother you, what did the test record for CC1CC(C)CN(C(=O)C(C)n2sc3ccccc3c2=O)C1 (stereo not drawn) ?
Found: F

Lookup: Hi, sorry to bother you, what did the test record for CCOc1ccc(C(=O)NN)cc1 ?
Found: F

Lookup: Hi, sorry to bother you, what did the test record for CCOC(=O)CN1C(=O)S/C(=C\c2ccc(-c3ccc(Cl)cc3Cl)o2)C1=O ?
Found: F

Lookup: Hi, sorry to bother you, what did the test record for c1snnc1C12CC3CC(CC(C3)C1)C2 ?
Found: F

Lookup: Hi, sorry to bother you, what did the test record for Nc1nc(/C(=C/CC(=O)O)C(=O)N[C@@H]2C(=O)N3C(C(=O)O)=CCS[C@H]23)cs1 ?
Found: T

Lookup: Hi, sorry to bother you, what did the test record for CN1CCC(N(C)C(=O)Nc2c[nH]c3ccccc23)CC1 ?
Found: T

Lookup: Hi, sorry to bother you, what did the test record for O=C1COc2ccc(C3=Nn4c(nnc4-c4ccncc4)SC3)cc2N1 ?
Found: F

Lookup: Hi, sorry to bother you, what did the test record for O=C(Nc1c[nH]c2ccccc12)NC1CCCC1 ?
Found: F

###

procedureText: Staphylococcus aureus RN4220 growth blockers – two temperatures, LtaS inhibitor project, primary screen (AID 720641)
appliedConditions: S. aureus RN4220 growth, OD600, 20 h, 42 °C; stronger effect = lower value
The campaign covered roughly 170,000 compounds. About 900 (0.53%) were called active. The sample as a whole holds a higher share of actives than the screen did.
Known relative growth of a selection of molecules
Supply the numeric figure in %, leaving out any unit text.

Some entries whose results are on file:
- molecule: "CSc1n[nH]c(-c2ccco2)n1"
  unitsLabel: "%"
  relative growth: 101
- molecule: "COc1cc(C2C(C(=O)Nc3ccccn3)=C(C)NC3=C2C(=O)CCC3)cc(OC)c1OC (configuration not stated)"
  unitsLabel: "%"
  relative growth: 98.5

Lookup: What relative growth value was documented for this molecule, Cc1cnc(C(=O)OCc2cc(=O)n3ccsc3n2)cn1 ?
Found: 86.6

Lookup: What relative growth value was documented for this molecule, c1ccc(NC2CCCCC2)cc1 ?
Found: 104

Lookup: What relative growth value was documented for this molecule, COCCNc1ncnc2c1sc1nc(N3CCOCC3)c3c(c12)CCC3 ?
Found: 111

###

procedureText: Staphylococcus aureus RN4220 growth blockers – two temperatures, LtaS inhibitor project, primary screen (AID 720641)
appliedConditions: S. aureus RN4220 growth, OD600, 20 h, 42 °C; measured here: growth at 30 °C; stronger effect = lower value
Out of some 170,000 compounds screened, about 900 (0.53%) were called active. Many of the other results were omitted from the sample, so actives are more common in it than they were.
The threshold is 80%. Values of relative growth beneath it are tagged label 1; values meeting or exceeding it are tagged label 0.

Reference set, count: 2
- structureSmiles: "CC(C)(C)c1cc(Cl)c(O)c(NC(=O)c2cncc(Br)c2)c1"
  category: "label 0"
- structureSmiles: "O=C(Nc1c[nH]c2ccccc12)NC1CCCC1"
  category: "label 1"

Lookup: Consider Nc1ccc(C(=O)Nc2ccc(C(=O)O)cc2N)cc1 . Does its relative growth lie strictly below 80%?
Found: label 0

Lookup: Consider CN1CCC(N(C)C(=O)Nc2c[nH]c3ccccc23)CC1 . Does its relative growth lie strictly below 80%?
Found: label 1

Lookup: Consider CCOC(=O)N1CCC(N(CCOC)C(=S)Nc2ccccc2F)CC1 . Does its relative growth lie strictly below 80%?
Found: label 1

Lookup: Consider COc1cc(NC(=O)c2cc3ccc4cccnc4c3[nH]2)cc(OC)c1OC . Does its relative growth lie strictly below 80%?
Found: label 0

Lookup: Consider Cc1cc(NC(=O)c2cc3ccc4cccnc4c3[nH]2)no1 . Does its relative growth lie strictly below 80%?
Found: label 0

###

Known relative growth of a selection of compounds
procedureText: Staphylococcus aureus RN4220 growth blockers – two temperatures, LtaS inhibitor project, primary screen (AID 720641)
appliedConditions: S. aureus RN4220 growth, OD600, 20 h, 42 °C; measured here: growth at 30 °C; stronger effect = lower value
Hit rate of the full screen: of about 170,000 compounds, about 900 (0.53%) were called active. The entries come from a sample that favours actives as a whole.
Supply the numeric figure in %, leaving out any unit text.

Some entries whose results are on file:
- compound: "Cc1cc(C)c(NC(=O)C2CC3c4ccccc4C2C2C=CC=CC32)c(C)c1 (stereo not drawn)"
  unitsLabel: "%"
  relative growth: 88.2
- compound: "O=C(NCC12CC3CC(CC(C3)C1)C2)c1cc(-c2ccccc2O)no1"
  unitsLabel: "%"
  relative growth: 101
- compound: "CCCCN(CC)S(=O)(=O)c1ccc(C(=O)Nc2nnc(-c3ccc(Cl)s3)o2)cc1"
  unitsLabel: "%"
  relative growth: 0.29
- compound: "CCC(CC)NCc1ccc(OC)c(C)c1OC"
  unitsLabel: "%"
  relative growth: 81.6
- compound: "CC1Cc2ccccc2N1c1ccc2ccccc2n1 (stereo not drawn)"
  unitsLabel: "%"
  relative growth: 99.6
- compound: "CCOC(=O)OC(C)OC(=O)C1N2C(=O)C(NC(=O)[C@H](N)c3ccccc3)C2SC1(C)C (stereo partly drawn)"
  unitsLabel: "%"
  relative growth: -0.8
- compound: "CN(C)S(=O)(=O)c1ccc(C(=O)Nc2nnc(C3CC3)o2)cc1"
  unitsLabel: "%"
  relative growth: 59.5
- compound: "CC1CCCCN1C(=O)c1ccc(Br)cc1 (stereo not drawn)"
  unitsLabel: "%"
  relative growth: 91.1

Lookup: What relative growth value was documented for this compound, C=CCNC(=O)c1ccc(S(=O)(=O)N(CC)c2ccccc2)cc1 ?
Found: 91

Lookup: What relative growth value was documented for this compound, CCN(CC(=O)NCc1ccc(Cl)cc1)C(=O)c1c(C)noc1C ?
Found: 95.1

Lookup: What relative growth value was documented for this compound, COC(=O)CN1C(=O)CSc2ccc(S(=O)(=O)Nc3cc(C)ccc3C)cc21 ?
Found: 94

Lookup: What relative growth value was documented for this compound, NC(=O)C1CCN(C(=O)CSc2ccc3ccccc3c2)CC1 ?
Found: 94.8

Lookup: What relative growth value was documented for this compound, CC1(C)S[C@@H]2[C@H](N=CN3CCCCCC3)C(=O)N2[C@H]1C(=O)O ?
Found: 82.3

Lookup: What relative growth value was documented for this compound, CC(C)Oc1ccc(C(=O)Nc2ccnn2C2CCCCC2)cc1 ?
Found: 98.1

Lookup: What relative growth value was documented for this compound, N#Cc1c(-c2ccco2)cc(C2CC2)nc1SCC(=O)c1ccc(Br)cc1 ?
Found: 76.7

###

procedureText: Staphylococcus aureus RN4220 growth blockers – two temperatures, LtaS inhibitor project, primary screen (AID 720641)
appliedConditions: S. aureus RN4220 growth, OD600, 20 h, 42 °C
The whole screen tested about 170,000 compounds, of which about 900 (0.53%) were called active.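 The calls were made as follows: active = relative growth at most 50% at the other temperature and 20+ points below 30 °C, or under 10% at both; inactive = the rest, inconclusive results apart.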 The list comes from a sample in which actives are over-represented; it also holds close analogues and randomly drawn compounds.
Lab note: assign the record to one of active, inactive

Lookup: Hi, sorry to bother you, what did the test record for CCN1CCN(C(=O)N[C@@H](C(=O)N[C@@H]2C(=O)N3C(C(=O)O)=C(CSc4nnnn4C)CS[C@H]23)c2ccc(O)cc2)C(=O)C1=O ?
Found: active
